Cited source: paper PMC5540273

Measured inhibition at 1 µM, listed per entry.
- tested_on: GRK7 (Homo sapiens)
- Sequence (Q8WTQ7 1-553): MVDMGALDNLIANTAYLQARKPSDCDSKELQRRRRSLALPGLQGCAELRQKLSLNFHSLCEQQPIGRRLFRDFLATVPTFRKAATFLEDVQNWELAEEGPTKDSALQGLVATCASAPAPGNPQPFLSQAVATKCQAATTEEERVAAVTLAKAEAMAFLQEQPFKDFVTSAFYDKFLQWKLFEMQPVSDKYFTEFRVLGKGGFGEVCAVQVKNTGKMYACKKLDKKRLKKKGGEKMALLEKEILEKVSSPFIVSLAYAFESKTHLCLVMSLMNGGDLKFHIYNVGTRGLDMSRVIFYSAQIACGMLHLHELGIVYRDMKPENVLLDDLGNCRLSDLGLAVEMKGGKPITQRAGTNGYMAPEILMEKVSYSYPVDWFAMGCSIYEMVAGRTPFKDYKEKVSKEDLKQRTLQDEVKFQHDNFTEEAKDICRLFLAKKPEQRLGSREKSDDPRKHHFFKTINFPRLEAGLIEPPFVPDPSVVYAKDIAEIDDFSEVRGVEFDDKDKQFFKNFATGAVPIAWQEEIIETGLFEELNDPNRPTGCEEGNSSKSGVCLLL
- protocol_notes: KINOMEscan competition binding
- condition_description: read-out: %Inh GRK7
# unit: % | format: bare number

Illustrative cases are given below, each with its answer.
compound	assay_result
O=c1cc(N2CCOCC2)nc2n(Cc3cccc(Cl)c3Cl)c(C3CC3)nn12 [UNC10225469A]	0
Cc1ccc(NC(=O)Nc2cccc(C(F)(F)F)c2)cc1 [UNC10225187A]	10
Cn1cc(-c2cnc(N)c3c(-c4ccc5c(c4)CCN5C(=O)Cc4ccccc4)csc23)cn1 [UNC10225012A]	6
COc1cccc(OC)c1C(=O)Nc1cccc(-c2nn3ccccc3c2-c2ccnc(Nc3cccc(F)c3)n2)c1 [UNC10225310A]	17

Then there is this compound:
stdin: Output inhibition at 1 µM of CS(=O)(=O)Cc1ccc(Nc2nccc(-c3c(-c4cccc(NC(=O)C5CCCCC5)c4)nn4ncccc34)n2)cc1 [UNC10225159A]
stdout: 5
